FYI, the data here is from patent US20130029928A1.

ASSAY EXPLANATION: Phase I study CXR1002-001: plasma pharmacokinetics (LC-MS/MS)
Type: in vivo, human
MEASUREMENT PARAMETERS: human, plasma, oral, 750 mg, Patient 028, 750 mg, person, plasma, 676 hr; read-out: Concentration
From the text: PK samples, PD (fasting) samples, blood glucose, and blood triglyceride samples, were taken over a 6-week period. Dose limiting toxicity (DLT) will be based on the toxicity assessments over the first 3-week period of the repeat dosing schedule. […]
PARAMETER MEASURED: concentration at 676 h (µM)
Numbers only, in µM.

Q) // lookup concentration at 676 h for O=C(O)C(F)(F)C(F)(F)C(F)(F)C(F)(F)C(F)(F)C(F)(F)C(F)(F)F [CXR1002]
A) 700

---

ASSAY EXPLANATION: Phase I study CXR1002-001: plasma pharmacokinetics (LC-MS/MS)
Format: in vivo, human
MEASUREMENT PARAMETERS: human, plasma, oral, 200 mg, Patient 008 Dose 200 mg; 338 hr; read-out: Concentration
PARAMETER MEASURED: concentration at 338 hr (µM)
Numbers only, in µM.

Q) Which concentration at 338 hr reading was recorded for the compound O=C(O)C(F)(F)C(F)(F)C(F)(F)C(F)(F)C(F)(F)C(F)(F)C(F)(F)F [CXR1002] ?
A) 147

---

ASSAY EXPLANATION: Phase I study CXR1002-001: plasma pharmacokinetics (LC-MS/MS)
Type: in vivo, human
MEASUREMENT PARAMETERS: human, plasma, oral, 300 mg, Patient 014 Dose 300 mg; Week 18
PARAMETER MEASURED: concentration at 18 week (µM)
Answers are plain numbers, in µM.

Q) Entry O=C(O)C(F)(F)C(F)(F)C(F)(F)C(F)(F)C(F)(F)C(F)(F)C(F)(F)F : reported concentration at 18 week = ?
A) 980

---

ASSAY EXPLANATION: Phase I study CXR1002-001: plasma pharmacokinetics (LC-MS/MS)
Type: in vivo, human
MEASUREMENT PARAMETERS: human, plasma, oral, 100 mg, Patient 005 Dose 100 mg; 360 hr (Day 16); read-out: Concentration
PARAMETER MEASURED: concentration at 360 h

Q) Please look up its concentration at 360 h: O=C(O)C(F)(F)C(F)(F)C(F)(F)C(F)(F)C(F)(F)C(F)(F)C(F)(F)F
A) 47.4 µM

---

ASSAY EXPLANATION: Phase I study CXR1002-001: plasma pharmacokinetics (LC-MS/MS)
Format: in vivo, human
MEASUREMENT PARAMETERS: human, plasma, oral, 300 mg, Patient 012 Dose 300 mg; 168 hr (Day 8); read-out: Concentration
PARAMETER MEASURED: concentration at 168 h (µM)
Give bare numbers, in µM.

Q) Look up concentration at 168 h: O=C(O)C(F)(F)C(F)(F)C(F)(F)C(F)(F)C(F)(F)C(F)(F)C(F)(F)F
A) 64.8

---

ASSAY EXPLANATION: Phase I study CXR1002-001: plasma pharmacokinetics (LC-MS/MS)
Type: in vivo, human
MEASUREMENT PARAMETERS: human, plasma, oral, 600 mg, Patient 022, 600 mg, person, plasma, 3 hr; read-out: Concentration
PARAMETER MEASURED: concentration at 3 h (µM)
One number for each entry, in µM.

Q) Need concentration at 3 h, item O=C(O)C(F)(F)C(F)(F)C(F)(F)C(F)(F)C(F)(F)C(F)(F)C(F)(F)F
A) 196
